- Target under test: Bub1 (Homo sapiens, UniProt O43683)
- Construct: catalytic domain of human Bub1 (amino acids 704-1085); His6 (N); made in house; host or cells: insect cells (Hi5)
- Sequence (O43683 704-1085): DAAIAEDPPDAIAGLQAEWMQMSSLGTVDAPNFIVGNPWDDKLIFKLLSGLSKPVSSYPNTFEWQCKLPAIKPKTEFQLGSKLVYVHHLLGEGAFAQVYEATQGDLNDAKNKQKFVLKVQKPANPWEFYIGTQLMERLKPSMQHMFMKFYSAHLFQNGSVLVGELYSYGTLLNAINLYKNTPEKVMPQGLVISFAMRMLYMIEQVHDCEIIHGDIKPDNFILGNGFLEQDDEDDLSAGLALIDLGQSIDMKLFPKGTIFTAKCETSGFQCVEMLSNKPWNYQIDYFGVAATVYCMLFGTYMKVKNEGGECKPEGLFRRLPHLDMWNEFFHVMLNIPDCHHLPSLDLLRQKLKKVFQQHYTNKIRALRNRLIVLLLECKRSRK
- Procedure summary: Bub1 high ATP kinase assay (TR-FRET)
- Type: biochemical
- Test parameters: Bub1 high ATP (2 mM) IC50, TR-FRET, 2 mM ATP; Table 3
Readout kind: pIC50
Give bare numbers, as −log10 of the molar value.

Give one value of pIC50 per listed compound.
1. COc1c(Cl)cccc1Nc1c(-c2ccncc2OCC2OCCC2(F)F)[nH]c2c1C(=O)N[C@H](C)C2 (single isomer, unassigned) [Example 73]
2. COc1c(Cl)cccc1Nc1c(-c2ccncc2OCC2CCCCO2)[nH]c2c1C(=O)NCC2C (single isomer, unassigned) [Example 47]
3. Cc1c(Cl)cccc1Nc1c(-c2ccncc2OC[C@H]2CN(C)CCO2)[nH]c2c1C(=O)N[C@H](C)C2
4. COCC(C)Oc1cnccc1-c1[nH]c2c(c1Nc1cccc(Cl)c1OC)C(=O)N[C@H](C)C2 (single isomer, unassigned) [Example 42]
5. COc1c(Cl)cccc1Nc1c(-c2ccncc2OC[C@@H]2CCCO2)[nH]c2c1C(=O)NCC2C (mixture of isomers) [Example 30]

[5.39, 5.12, 4.94, 5.06, 4.95]

Return reported pIC50 values for all items listed beneath this line.
1. COc1c(Cl)cccc1Nc1c(-c2ccncc2OC[C@@H]2CCCO2)[nH]c2c1C(=O)NC1(CCC1)C2
2. COCC(C)Oc1cnccc1-c1[nH]c2c(c1Nc1cccc(Cl)c1C)C(=O)N[C@H](C)C2 (stereo partly drawn)

1: 5.96; 2: 5.43

Look up pIC50 for the entries below, preserving their order.
1. COc1c(Cl)cccc1Nc1c(-c2ccncc2OCC2(C)CCO2)[nH]c2c1C(=O)NCC2CCO (single isomer, unassigned) [Example 20]
2. COc1c(Cl)cccc1Nc1c(-c2ccncc2OCC(C)OC)[nH]c2c1C(=O)N[C@H](C)C2 (single isomer, unassigned) [Example 81]
3. COc1c(Cl)cccc1Nc1c(-c2ccncc2OCC2COCCO2)[nH]c2c1C(=O)N[C@H](C)C2 (single isomer, unassigned) [Example 26]

[4.76, 5.31, 5.51]

Field: pIC50. Fill in for each record below.
1. COc1c(Cl)cccc1Nc1c(-c2ccncc2OCC2COCCO2)[nH]c2c1C(=O)NCC2C (single isomer, unassigned) [Example 37]
2. COc1c(Cl)cccc1Nc1c(-c2ccncc2OCC2COCCO2)[nH]c2c1C(=O)NCC2C (single isomer, unassigned) [Example 35]
3. COc1c(Cl)cccc1Nc1c(-c2ccncc2OCC2COC(C)(C)CO2)[nH]c2c1C(=O)NC1(CCC1)C2 (single isomer, unassigned) [Example 130]
4. COc1c(Cl)cccc1Nc1c(-c2ccncc2OCC2OCCCC2(F)F)[nH]c2c1C(=O)N[C@H](C)C2 (single isomer, unassigned) [Example 75]

1. 5.54
2. 4.91
3. 6.11
4. 4.95

* * *

- Target under test: Ba/F3-EGFR-D770_N771insSVD cells (Homo sapiens, UniProt P00533, DUP768-770, cells depend on it)
- Sequence (P00533 with tags, fused parts or gaps DUP768-770): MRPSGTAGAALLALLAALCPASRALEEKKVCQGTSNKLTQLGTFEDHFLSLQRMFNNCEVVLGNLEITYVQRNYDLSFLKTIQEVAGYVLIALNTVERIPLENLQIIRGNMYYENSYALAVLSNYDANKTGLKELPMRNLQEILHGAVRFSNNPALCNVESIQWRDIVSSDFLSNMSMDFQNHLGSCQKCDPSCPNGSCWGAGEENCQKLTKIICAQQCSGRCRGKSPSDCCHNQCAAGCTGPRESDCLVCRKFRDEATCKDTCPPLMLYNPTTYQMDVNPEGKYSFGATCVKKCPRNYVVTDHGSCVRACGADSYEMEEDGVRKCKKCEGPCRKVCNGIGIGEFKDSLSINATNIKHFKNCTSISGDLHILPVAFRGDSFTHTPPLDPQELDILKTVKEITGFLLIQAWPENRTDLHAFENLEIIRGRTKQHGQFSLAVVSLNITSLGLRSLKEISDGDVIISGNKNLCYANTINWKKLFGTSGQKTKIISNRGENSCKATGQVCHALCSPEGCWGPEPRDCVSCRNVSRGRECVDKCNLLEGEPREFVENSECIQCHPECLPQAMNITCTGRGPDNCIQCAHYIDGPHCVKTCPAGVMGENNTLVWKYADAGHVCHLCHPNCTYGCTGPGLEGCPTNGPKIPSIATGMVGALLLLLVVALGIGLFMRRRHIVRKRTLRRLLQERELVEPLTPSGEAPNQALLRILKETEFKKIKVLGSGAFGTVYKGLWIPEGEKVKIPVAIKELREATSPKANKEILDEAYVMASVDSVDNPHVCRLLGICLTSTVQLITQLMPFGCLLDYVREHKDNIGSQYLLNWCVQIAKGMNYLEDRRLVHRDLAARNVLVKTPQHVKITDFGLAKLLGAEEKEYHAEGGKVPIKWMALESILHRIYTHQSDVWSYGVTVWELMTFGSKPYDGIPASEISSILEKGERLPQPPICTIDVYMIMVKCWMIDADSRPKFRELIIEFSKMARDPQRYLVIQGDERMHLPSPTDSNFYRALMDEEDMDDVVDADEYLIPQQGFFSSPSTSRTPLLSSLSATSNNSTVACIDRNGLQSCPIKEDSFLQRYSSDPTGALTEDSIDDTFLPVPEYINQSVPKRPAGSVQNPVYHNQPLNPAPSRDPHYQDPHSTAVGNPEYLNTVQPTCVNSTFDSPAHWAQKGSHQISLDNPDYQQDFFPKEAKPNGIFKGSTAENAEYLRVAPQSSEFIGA
- Procedure summary: Ba/F3 cell survival assay, EGFR D770_N771insSVD
- Type: cell-based
- Test parameters: Cell Titer-Glo, 48 h, without IL-3; Table 4; read-out: BA/F3 (insSVD) IC50
Readout kind: GI50 (nM)
Answers are plain numbers, in nM.

These solved cases illustrate the format of a correct answer.
> print(dat)
                                   compound  readout.kind  test.result
1  COc1c(Cl)cccc1Nc1c(-c2ccncc2OC[C@@H]2CCCO2)[nH]c2c1C(=O)NCC2C (single isomer, unassigned) [Example 31]          GI50          125
2  COc1c(Cl)cccc1Nc1c(-c2ccncc2OCC2COCCO2)[nH]c2c1C(=O)N[C@H](C)C2 (single isomer, unassigned) [Example 25]          GI50         25.9
3  COc1c(Cl)cccc1Nc1c(-c2ccncc2OC[C@@H]2CCCO2)[nH]c2c1C(=O)N[C@@H]1CCC[C@H]21          GI50         51.5
4  COCC(C)Oc1cnccc1-c1[nH]c2c(c1Nc1cccc(Cl)c1OC)C(=O)N[C@H](C)C2 (single isomer, unassigned) [Example 43]          GI50          219
5  COc1c(Cl)cccc1Nc1c(-c2ccncc2OC[C@@H]2CCO2)[nH]c2c1C(=O)N[C@@H](C)C2          GI50         25.7

Please give GI50, item by item, for the list that follows.
1. COc1c(Cl)cccc1Nc1c(-c2ccncc2OCC2CCCCO2)[nH]c2c1C(=O)N[C@H](C)C2 (single isomer, unassigned) [Example 28]
2. COc1c(Cl)cccc1Nc1c(-c2ccncc2OC[C@@H]2CCCO2)[nH]c2c1C(=O)NCC2CCC(F)(F)F (single isomer, unassigned) [Example 99]
3. COCC(C)Oc1cnccc1-c1[nH]c2c(c1Nc1cccc(Cl)c1OC)C(=O)N[C@H](C)C2 (mixture of isomers) [Example 41]
4. COc1c(Cl)cccc1Nc1c(-c2ccncc2OC[C@@H]2CCCO2)[nH]c2c1C(=O)NCC2C (mixture of isomers) [Example 30]
5. COc1c(Cl)cccc1Nc1c(-c2ccncc2OCC2COCCO2)[nH]c2c1C(=O)N[C@@H]1CCC[C@H]21 (single isomer, unassigned) [Example 53]

1. 8.33
2. 45.9
3. 39.8
4. 44
5. 34.9
